molecular target: PCSK9 (Homo sapiens (Human), UniProt Q8NBP7); assay: PCSK9 Alexa FRET Standard assay (displacement of AlexaFluor647 tagged cyclic peptide Reagent A); assay type: binding; settings: PCSK9 Alexa FRET Standard assay, 0.5 nM PCSK9, 20 nM AF cyclic peptide Reagent A; read-out: IC50
Sequence (Q8NBP7 153-692): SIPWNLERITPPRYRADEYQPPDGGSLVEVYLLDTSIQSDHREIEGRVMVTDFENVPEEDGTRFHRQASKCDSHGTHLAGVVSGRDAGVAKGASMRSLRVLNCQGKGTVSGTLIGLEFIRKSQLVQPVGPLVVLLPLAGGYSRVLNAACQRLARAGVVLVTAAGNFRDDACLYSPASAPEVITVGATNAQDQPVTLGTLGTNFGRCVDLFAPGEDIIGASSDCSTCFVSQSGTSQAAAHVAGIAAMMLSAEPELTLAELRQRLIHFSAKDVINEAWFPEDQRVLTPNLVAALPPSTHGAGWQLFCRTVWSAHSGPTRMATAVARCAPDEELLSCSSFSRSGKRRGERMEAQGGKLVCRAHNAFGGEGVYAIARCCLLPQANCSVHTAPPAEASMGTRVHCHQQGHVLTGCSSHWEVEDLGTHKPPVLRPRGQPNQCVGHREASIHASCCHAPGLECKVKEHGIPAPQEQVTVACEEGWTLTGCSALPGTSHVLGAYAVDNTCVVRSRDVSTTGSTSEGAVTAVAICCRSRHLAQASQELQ
Starred links: 1 amine or outer side, 2 acyl side, 3 side chain; linkers in the order of their positions; H or OH if unused. Positions of bridges follow the written chain, without caps; N, C: chain ends. Non-standard residues stand in square brackets, D forms with d. Residues, ends and D or L forms follow the SMILES beside them. Phe(3-CH2NH2) = O=C([C@H](Cc1cccc(CN[*:3])c1)N[*:1])[*:2]; X43 = O=C(CC[S+]([O-])Cc1cc(F)cc(CSCCN[*:1])c1)[*:2]; X25 = O=C([C@H](Cc1cccc(OCC=[*:3])c1)N[*:1])[*:2]; Trp(5-F) = N[C@@H](Cc1c[nH]c2ccc(F)cc12)C(=O)O; X42 = CN([C@@H](CCC=[*:3])C(=O)[*:2])[*:1]; Pro(cis-4-F) = O=C(O)[C@@H]1C[C@H](F)CN1; mXylylene = c1cc(C[*:1])cc(C[*:2])c1; hPhe = N[C@@H](CCc1ccccc1)C(=O)O; αMeP = C[C@@]1(C(=O)O)CCCN1; Mpa = O=C(O)CCS
Overview of recorded IC50 for various compounds

COMPOUND	OBSERVED
COc1ccc(C[C@@H]2NC(=O)[C@H]([C@@H](C)O)NC(=O)[C@@H]3C[C@H](F)CN3C(=O)[C@H](Cc3c[nH]c4ccc(F)cc34)NC(=O)[C@H](Cc3c[nH]c4ccc(F)cc34)NC(=O)[C@@H](C)NC(=O)[C@H](CCCCN)NC(=O)[C@@H](NC(C)=O)CC(=O)NCc3cccc(c3)C[C@@H](C(N)=O)NC(=O)[C@]3(C)CCCN3C2=O)cc1 [Compound 077] (Ac-DK[dA][Trp(5-F)][Trp(5-F)][Pro(cis-4-F)]TY(Me)[αMeP][Phe(3-CH2NH2)]-NH2; lactam 1-10)	21000 to 50000 nM
COc1ccc(C[C@@H]2NC(=O)[C@H]([C@@H](C)OC)NC(=O)[C@@H]3CC/C=C/COc4cccc(c4)C[C@H](NC(=O)[C@@H](C)NC(=O)[C@H](C)NC(=O)CC[S+]([O-])Cc4cc(F)cc(c4)CSCCNC(=O)[C@]4(C)CCCN4C2=O)C(=O)N[C@@H](Cc2c[nH]c4ccc(F)cc24)C(=O)N3C)cc1 (stereo partly drawn) [Compound 507] (cyclo(A[dA][X25][Trp(5-F)][X42]T(Me)Y(Me)[αMeP][X43]); staple (E) 3-5)	0.11 to 100 nM

Task: Which IC50 value is on record for NCCCC[C@@H]1NC(=O)CCSCc2cccc(c2)CSC[C@@H](C(N)=O)NC(=O)[C@@H]2CCCN2C(=O)[C@H](Cc2ccc(O)cc2)NC(=O)[C@H](Cc2c[nH]cn2)NC(=O)[C@H](CC(=O)O)NC(=O)[C@H](CCc2ccccc2)NC(=O)[C@H](Cc2c[nH]c3ccc(F)cc23)NC(=O)CNC1=O [Compound 244] ([Mpa]KG[Trp(5-F)][hPhe]DHYPC-NH2; linker 1-10 via mXylylene) ?
Output: 100 to 1000 nM
